Assay: Cytotoxicity against human […] cells after 48 hrs by MTT assay
Assay type: cell-based
Parameter: GI50 at 48 h

COc1ccc(OC)c2c1C=C1[C@H]3c4c(OC)ccc(OC)c4C[C@@H](C(O)N1[C@H]2C)N3C (relative stereo) : > 100 µM

GI50 at 48 h measured on `COc1ccc(OC)c(C[C@@H]2NC(=O)[C@@H]3Cc4c(OC)ccc(OC)c4[C@H](C)N3C2=O)c1` = > 100 µM

GI50 at 48 h measured on COc1ccc(OC)c2c1C=C1[C@H]3c4c(OC)ccc(OC)c4C[C@@H]([C@H](C#N)N1[C@H]2C)N3C (relative stereo) = > 100 µM
